TARGET OF ASSAY: T1, EsCas13d, nuclease-dead (Eubacterium siraeum, UniProt B0MS50, R295A;H300A;R849A;H854A)
T1 sequence: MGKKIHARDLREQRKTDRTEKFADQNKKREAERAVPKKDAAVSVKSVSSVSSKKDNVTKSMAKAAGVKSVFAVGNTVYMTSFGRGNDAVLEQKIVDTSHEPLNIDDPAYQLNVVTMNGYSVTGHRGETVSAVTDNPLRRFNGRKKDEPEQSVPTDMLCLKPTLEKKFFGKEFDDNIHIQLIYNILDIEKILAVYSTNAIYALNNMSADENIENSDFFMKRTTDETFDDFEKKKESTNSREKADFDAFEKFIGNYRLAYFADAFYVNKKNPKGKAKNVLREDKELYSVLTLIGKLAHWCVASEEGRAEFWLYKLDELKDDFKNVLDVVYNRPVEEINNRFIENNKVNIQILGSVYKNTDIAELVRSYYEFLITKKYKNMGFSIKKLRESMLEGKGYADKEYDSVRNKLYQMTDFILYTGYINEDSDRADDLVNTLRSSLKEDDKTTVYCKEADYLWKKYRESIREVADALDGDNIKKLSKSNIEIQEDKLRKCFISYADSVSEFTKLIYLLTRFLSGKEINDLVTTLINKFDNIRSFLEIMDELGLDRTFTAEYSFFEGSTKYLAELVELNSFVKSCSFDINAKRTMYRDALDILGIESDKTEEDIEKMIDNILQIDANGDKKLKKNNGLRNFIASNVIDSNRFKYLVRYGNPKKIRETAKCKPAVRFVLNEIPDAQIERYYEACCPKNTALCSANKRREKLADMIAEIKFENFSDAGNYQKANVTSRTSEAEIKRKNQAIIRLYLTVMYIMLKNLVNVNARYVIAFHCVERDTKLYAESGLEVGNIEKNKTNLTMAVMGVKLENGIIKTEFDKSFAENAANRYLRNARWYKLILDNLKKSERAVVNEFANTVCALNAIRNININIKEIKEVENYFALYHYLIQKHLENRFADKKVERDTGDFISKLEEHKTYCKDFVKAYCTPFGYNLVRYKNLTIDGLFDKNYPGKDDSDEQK
PROCEDURE TEXT: crRNA (strand 1, pre-loaded); Mg2+; 40 mM Tris-HCl pH 7.5, 150 mM NaCl, 6 mM MgCl2, 1 mM DTT, 0.1% Tween-20, 0.2 mg/ml BSA; 25 C; 10 min per concentration, then washed
CONDITION CONTEXT: tags: His6-TwinStrep-SUMO cleaved; N-terminal SNAP kept (SNAP-Surface 488); label: 3' end held by stalled T7 RNA polymerase
pKd: −log10 of the molar value.
ENDPOINT: pKd

[[record]]
binder = "target 1 insA 3' of 6,insC 3' of 1 (mixed) RNA 1: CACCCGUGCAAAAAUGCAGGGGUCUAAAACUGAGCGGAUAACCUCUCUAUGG RNA 2: GGGAAUGGAUCCACAUCUACGAAUUCGUACCAUAGAGAGGUUAUCCAGCUCACCCGAGAUCGGAAGAGCACACGU"
measured_result = 7.75

[[record]]
binder = "target 2 MT 5'PFS AUA 3'PFS CUA (mixed) RNA 1: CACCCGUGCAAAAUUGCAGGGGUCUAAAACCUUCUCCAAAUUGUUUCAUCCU RNA 2: GGGAAUGGAUCCACAUCUACGAAUUCAUAAGGAUGAAACAAUUUGGAGAAGCUAAGAUCGGAAGAGCACACGU"
measured_result = 8.21

[[record]]
binder = "target 1 insA 3' of 5,insC 3' of 5 (mixed) RNA 1: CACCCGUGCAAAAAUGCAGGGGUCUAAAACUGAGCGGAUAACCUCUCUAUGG RNA 2: GGGAAUGGAUCCACAUCUACGAAUUCGUACCAUAGAGAGGUUAUCCGACCUCACCGAGAUCGGAAGAGCACACGU"
measured_result = 7.95

[[record]]
binder = "target 2 MT 5'PFS GGA 3'PFS CCG (mixed) RNA 1: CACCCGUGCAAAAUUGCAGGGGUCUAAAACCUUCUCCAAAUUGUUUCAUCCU RNA 2: GGGAAUGGAUCCACAUCUACGAAUUCGGAAGGAUGAAACAAUUUGGAGAAGCCGAGAUCGGAAGAGCACACGU"
measured_result = 7.91

[[record]]
binder = "target 2 MT 5'PFS UAU 3'PFS AGU (mixed) RNA 1: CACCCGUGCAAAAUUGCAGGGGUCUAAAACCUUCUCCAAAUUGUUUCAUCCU RNA 2: GGGAAUGGAUCCACAUCUACGAAUUCUAUAGGAUGAAACAAUUUGGAGAAGAGUAGAUCGGAAGAGCACACGU"
measured_result = 7.82

[[record]]
binder = "target 1 MT 5'PFS UCA 3'PFS AGA (mixed) RNA 1: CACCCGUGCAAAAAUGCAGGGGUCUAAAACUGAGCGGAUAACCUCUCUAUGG RNA 2: GGGAAUGGAUCCACAUCUACGAAUUCUCACCAUAGAGAGGUUAUCCGCUCAAGAAGAUCGGAAGAGCACACGU"
measured_result = 7.69

[[record]]
binder = "target 1 C4A,U11G (mixed) RNA 1: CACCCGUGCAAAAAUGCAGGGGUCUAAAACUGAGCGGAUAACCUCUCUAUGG RNA 2: GGGAAUGGAUCCACAUCUACGAAUUCGUACCAUAGAGAGGGUAUCCGAUCACCGAGAUCGGAAGAGCACACGU"
measured_result = 8.08

[[record]]
binder = "target 2 MT 5'PFS AUU 3'PFS UUC (mixed) RNA 1: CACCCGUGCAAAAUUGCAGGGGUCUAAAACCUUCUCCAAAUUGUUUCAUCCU RNA 2: GGGAAUGGAUCCACAUCUACGAAUUCAUUAGGAUGAAACAAUUUGGAGAAGUUCAGAUCGGAAGAGCACACGU"
measured_result = 7.64

[[record]]
binder = "target 1 insG 3' of 11,insG 3' of 3 (mixed) RNA 1: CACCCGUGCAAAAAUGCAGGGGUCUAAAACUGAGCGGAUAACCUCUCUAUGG RNA 2: GGGAAUGGAUCCACAUCUACGAAUUCGUACCAUAGAGAGGUGUAUCCGCUGCACCGAGAUCGGAAGAGCACACGU"
measured_result = 7.38

[[record]]
binder = "target 1 insC 3' of 19,insC 3' of 15 (mixed) RNA 1: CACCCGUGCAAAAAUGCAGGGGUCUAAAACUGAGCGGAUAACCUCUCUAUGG RNA 2: GGGAAUGGAUCCACAUCUACGAAUUCGUACCAUCAGAGCAGGUUAUCCGCUCACCGAGAUCGGAAGAGCACACGU"
measured_result = 7.35

[[record]]
binder = "target 2 MT 5'PFS CUG 3'PFS UGC (mixed) RNA 1: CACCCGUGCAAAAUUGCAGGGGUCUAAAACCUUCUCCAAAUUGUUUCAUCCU RNA 2: GGGAAUGGAUCCACAUCUACGAAUUCCUGAGGAUGAAACAAUUUGGAGAAGUGCAGAUCGGAAGAGCACACGU"
measured_result = 8.59

[[record]]
binder = "target 1 insA 3' of 7,insA 3' of 2 (mixed) RNA 1: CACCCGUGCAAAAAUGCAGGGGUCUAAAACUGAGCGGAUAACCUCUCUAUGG RNA 2: GGGAAUGGAUCCACAUCUACGAAUUCGUACCAUAGAGAGGUUAUCACGCUCAACCGAGAUCGGAAGAGCACACGU"
measured_result = 8.14

[[record]]
binder = "target 1 MT 5'PFS CUA 3'PFS UCC (mixed) RNA 1: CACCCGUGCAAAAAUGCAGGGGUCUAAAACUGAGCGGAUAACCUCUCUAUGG RNA 2: GGGAAUGGAUCCACAUCUACGAAUUCCUACCAUAGAGAGGUUAUCCGCUCAUCCAGAUCGGAAGAGCACACGU"
measured_result = 7.79

[[record]]
binder = "target 1 MT 5'PFS GGA 3'PFS CGA (mixed) RNA 1: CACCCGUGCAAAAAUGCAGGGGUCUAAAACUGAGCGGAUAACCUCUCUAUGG RNA 2: GGGAAUGGAUCCACAUCUACGAAUUCGGACCAUAGAGAGGUUAUCCGCUCACGAAGAUCGGAAGAGCACACGU"
measured_result = 7.47

[[record]]
binder = "target 2 MT 5'PFS GUA 3'PFS CAA (mixed) RNA 1: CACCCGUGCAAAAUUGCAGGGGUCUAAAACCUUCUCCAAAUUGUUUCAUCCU RNA 2: GGGAAUGGAUCCACAUCUACGAAUUCGUAAGGAUGAAACAAUUUGGAGAAGCAAAGAUCGGAAGAGCACACGU"
measured_result = 8.32

